Some compounds, each annotated with its measured IC50.
TARGET_UNDER_TEST: biotinylated human IL-17 (binding to IL17R/Fc) (Homo sapiens)
Construct: 177-IR (IL17R/Fc)
Sequence (Q16552 20-155 limits assumed): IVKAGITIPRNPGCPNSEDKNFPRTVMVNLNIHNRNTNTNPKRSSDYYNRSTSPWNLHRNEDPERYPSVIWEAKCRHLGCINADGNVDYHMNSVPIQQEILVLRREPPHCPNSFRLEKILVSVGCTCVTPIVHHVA
TEST_DESCRIPTION: IL-17 competition ELISA II (captured IL17R/Fc, biotinylated IL-17)
MEASURED_ATTRIBUTE: IC50

{"SMILES_STR": "CN1CCCCCNC(=O)CC2(CCCC2)CC(=O)N[C@H](Cc2ccc(NC(=O)[C@@H](NC(=O)Cc3ccccc3)C3CCCCC3)cc2)C(=O)NCC1=O", "TARGET_UNDER_TEST": "biotinylated human IL-17 (binding to IL17R/Fc) (Homo sapiens)", "VALUE": "< 100 nM"}
{"SMILES_STR": "O=C1CC2(CCCC2)CC(=O)N[C@H](Cc2ccc(NC(=O)[C@H](Cc3ccccc3Cl)NC(=O)Cc3cccc(O)c3)cc2)C(=O)NCCNCCN1", "TARGET_UNDER_TEST": "biotinylated human IL-17 (binding to IL17R/Fc) (Homo sapiens)", "VALUE": "< 100 nM"}
{"SMILES_STR": "O=C1CC2(CCCC2)CC(=O)N[C@H](Cc2ccc(NC(=O)[C@H](Cc3ccccc3Cl)NC(=O)Oc3ccccc3)cc2)C(=O)NCCOCCOCCN1", "TARGET_UNDER_TEST": "biotinylated human IL-17 (binding to IL17R/Fc) (Homo sapiens)", "VALUE": "< 100 nM"}
